# protocol.details: label from the status in PepcDB records
endpoint.name: protein production

polymer.sequence	endpoint.value
MHIAIIGAAGMVGRKLTQRLVKDGSLGGKPVEKFTLIDVFQPEAPAGFSGAVDARAADLSAPGEAEKLVEARPDVIFHLAAIVSGEAELDFDKGYRINLDGTRYLFDAIRIANGKDGYKPRVVFTSSIAVFGAPLPYPIPDEFHTTPLTSYGTQKAICELLLSDYSRRGFFDGIGIRLPTICIRPGKPNAAASGFFSNILREPLVGQEAVLPVPESIRHWHASPRSAVGFLIHGAMIDVEKVGPRRNLSMPGLSATVGEQIEALRKVAGEKAVALIRREPNEMIMRMCEGWAPGFEAKRARELGFTAESSFEEIIQVHIEDELGGSLK	not failed
MAEKPKLHYFNARGRMESTRWLLAAAGVEFEEKFIKSAEDLDKLRNDGYLMFQQVPMVEIDGMKLVQTRAVLNYIASKYNLYGKDIKERALIDMYIEGIADLGEMILLLPVCPPEEKDAKLALIKEKIKNRYFPAFEKVLKSHGQDYLVGNKLSRADIHLVELLYYVEELDSSLISSFPLLKALKTRISNLPTVKKFLQPGSPRKPPMDEKSLEEARKIFRF	not failed
VTIDNIQKTVAEYYKIKVADLLSKRRSRSVARPRQXAXALAKELTNHSLPEIGDAFGGRDHTTVLHACRKIEQLREESHDIKEDFSNLIRTLSS	not failed

###

# protocol.details: label from the status in PepcDB records
endpoint.name: protein production

polymer.sequence	endpoint.value
MRARRRVMAKREALRAGSKASRQATPNSQPELEGKLFAEQDAGERTHEKLVFVPRVDIYETETGLVVVADLPGVGPEGLEVTLEKRVLSIYGRVKEDTPEGYSQAYREYEVGDFERQFTLSGDFEINGIEANIKDGVLHLAIPRAPEAAAKRIEVRSVS	failed
MSAPLFSVVVPAYNQHKFIDSCLTSLQRQTLTDFEVFVVDDCSTDDTGEQIAALIKGDDRFHVITHAHNRGVSAARNSGMAAAKGKYLCFVDGDDWVEPDFLATFLAAYRSAPDTQLVVCGHYGYLAVPSPAKTYNQKDLIANINFGTVGGFSWNKAFIRSIITTHHLKFNEDIDFLEDQLFAFRYANYVQSSEYVPDRTYHYRWRFRSNLAHIGIPFFTARRKMMKILKQENKQVLNEDWNNQLEHHHHHH	failed
MAEHGETTEDGDSEIDYEFLAELSALLGVDAVQLAKSQEEEEHKERMKMKKGFNSQMRSEAKRLKTFETYDTFRSWTPQEMAAAGFYHTGVRLGVQCFCCSLILFGNSLRKLPIERHKKLRPECEFLLGKDVGNIGKYDIRVKRPEKMLRGGKARYHEEEARLESFEDWPFYAHGTSPRVLSAAGFVFTGKRDTVQCFSCGGSLGNWEEGDDPWKEHAKWFPKCEFLQSKISSEEIAQYIQGYGGFVHVTGEHFVNSWVRRELPMVSGRKDIVQCFSCGGCMENWAEGDDPIQEHNKFFPK	failed
MIISLIAALAADRVIGMENAMPWHLPADLAWFKRNTLNKPVIMGRKTFESIGRPLPGRLNIVISSQPGTDERVTWAASIEEALAFAGNAEEVMVMGGGRVYKQFLDRANRMYLTHIDAEVGGDTHFPDYEPDEWESVFSEFHDADEANSHSYCFEILERR	not failed
MEFLDWKFIFIIITFAFIGLICIFKRSKIGLTAASVGIIGSLILWGFFKVSIKVRNFLDGVGLSFKDLLNFLFVVITAIIAFLVIFLFLKAFNNFGSKIRKR	failed
MSLRPRVLLVEDSTSLAILYKQYVKDEPYDIFHVETGRDAIQFIERSKPQLIILDLKLPDMSGEDVLDWINQNDIPTSVIIATAHGSVDLAVNLIQKGAEDFLEKPINADRLKTSVALHLKRAKLEDLVEGHHHHHH	not failed
MVAGFTVHSGPHHVPHRDMTHHSRPPGHAPRVTILMPVYNGEKYLAAAMESILDQTFRDFILLIIDDGSSDSSLAIARSFGDPRVQVERNPKNLGLVKTLNRGLDLVQTEFVARMDCDDIALPDRLEKQIAFLDENPDIGMCGTAYELFHESLRQTIRPPCRHEEIVYGLLDDNVFLHSSVIVRMEVLNRHGLRYREDYRLAEDYELWARLARYTHIGNLPQVLVRYRSHPENVSNTNKGEQIATRDRVRLEHLESFGLAPAADQKTLHIDLFSLAFQGSPDQLADARRWLEALARAVSTRCGLPLGRLHRDFALLWYSACGRSAHHGLTVLFSYLKSAMAWKGPKSYILKLLFRCLMRDPIPAVTKLEHHHHHH	not failed
